target: Aspartate--tRNA(Asp/Asn) ligase (Mycobacterium tuberculosis (strain ATCC 25618 / H37Rv)); experiment: Assay for Asp RNA synthetase-1 from Mycobacterium tuberculosis; format: functional; design: scale not given: direction of the effect not stated beside the values; settings: 30 µM; note: in the data most compounds retested in dose-response had high values
Quantity kind: Percent Effect (%)
Answers are plain numbers, in %.

Give me Percent Effect for each of these compounds, listed below.
1. Cc1nnc2n1CCN(Cc1csc(-c3ccc(F)cc3)n1)C2
2. CCOc1ccccc1OC1CCN(C(=O)c2cc[nH]n2)CC1
3. CN(Cc1ncc[nH]1)CC(c1cccs1)N1CCOCC1 (stereo unspecified)
4. CCN(CC)C(=O)c1ccn(COc2cc(C)cc(C)c2)n1

Response given:
[2.74, 0.989, -3.41, -7.43]

For the 2 compounds below, give their Percent Effect values.
1. CCO[C@@H]1CO[C@@]2(CCCN(C(=O)COc3ccccc3OC)C2)C1
2. COCCCn1c(CN2CCCC(O)C2)cnc1S(=O)(=O)C1CCCC1 (stereo unspecified)

Response given:
1: 1.03; 2: 4.61

----------
molecular target: Shiga toxin 2 (Escherichia coli O157:H7) (UniProt P09385+P09386); test: E. coli 0.157:H7 Shiga Toxin SOP - stx2 screening assay; assay type: functional; parameters: scale not given: direction of the effect not stated beside the values; conditions: 30 µM
Lab note: anything with Percent Effect at or over -10% counts as criterion met; the rest go in criterion not met.

Some entries whose results are on file:
Cc1nn(C)cc1CN1CCC(C2Nc3ccccc3S(=O)(=O)N2)CC1 (stereo not drawn)	criterion met
O=C(CCOc1ccc(Cl)cc1)N1CCN(c2cnccn2)CC1	criterion not met
COCCCC(=O)NS(=O)(=O)c1ccc2c(c1)OCCCO2	criterion met

Challenge: Decide: is the reported value of Percent Effect for `CNS(=O)(=O)c1cccc(CNc2ccc(C(F)(F)F)nn2)c1` equal to or greater than -10%?
Response given: criterion met

Challenge: In plain terms: is recorded Percent Effect at least -10% for `O=C(O)c1nnn(-c2ccc(OC(F)(F)F)cc2)c1-c1ccncc1` ?
Response given: criterion met

Challenge: Dear colleague, could you confirm whether `CC(C)c1nnc2n1CCN(C(=O)CN1Cc3ccccc3C1=O)C2` has Percent Effect at or above -10%?
Response given: criterion not met

Challenge: Say whether `O=C(c1ccc(Cl)cc1)N1CCCn2nnc(Cn3cccn3)c2C1` shows Percent Effect of -10% or more.
Response given: criterion met

Challenge: Identify whether the reported Percent Effect of the following molecule is -10% or greater: `O=C(c1ccccn1)N1CCc2nc(-c3cnccn3)nc(O)c2C1`
Response given: criterion not met

Challenge: Can `O=C(C1CCC1)N1CCN(Cc2ccsc2)[C@H]2CS(=O)(=O)C[C@H]21` be said to have Percent Effect at or above -10%?
Response given: criterion not met

----------
For each record, write down the corresponding Percent Effect.
molecular target: Shiga toxin 2 (Escherichia coli O157:H7) (UniProt P09385+P09386); assay: E. coli 0.157:H7 Shiga Toxin SOP - stx2 screening assay; type: functional; set-up: scale not given: direction of the effect not stated beside the values; conditions: 30 µM
One number for each entry, in %.

Use the examples below as a reference point.
Clc1ccccc1C1(c2ccnc(-c3ccncc3)n2)CCNCC1	-43.2
CC(NC(=O)CNCCn1cccn1)c1ccc2c(c1)OCCO2 (configuration not stated)	8.04

Each compound below has a recorded value; state its Percent Effect.
1. O=C([C@@H]1COC[C@H]2CN(C3CCOCC3)C[C@H]21)N1CCCCO1
2. c1ccc(CCN2CCOC(Cn3cccn3)C2)nc1 (configuration not stated)
3. COc1ccc(C2Nc3cc(Cl)ccc3C3=NCCN32)cc1OC (configuration not stated)
4. CC1c2ncc(CN3CCN(C)CC3)n2CCN1Cc1cccnc1 (configuration not stated)
5. CC(NC(=O)Cn1cccn1)c1ccc2c(c1)OCCCO2 (configuration not stated)

Response given:
-23.5
0.927
-59.6
-23.1
-69

Report Percent Effect for each item below.
1. CCOc1ncccc1C(=O)N1CCCC(c2nccn2CCOC)C1 (configuration not stated)
2. OC(COCc1ccccc1F)CN1CCc2c(ncn2C2CC2)C1 (configuration not stated)
3. c1ccc(N2CCCC3(COCCN(c4nccs4)C3)C2)nc1 (configuration not stated)

Response given:
1. -0.308
2. -4.88
3. -3.13

List the reported Percent Effect of each compound below.
1. Cc1noc(C)c1CN1CCN(Cc2ccncc2)c2ncccc2C1
2. c1ccc(OCc2ccncc2)c(CNC2CCc3ncnn3C2)c1 (configuration not stated)
3. Cc1csc(N2CCCN(C(=O)c3cnns3)CC2)n1
4. Cc1cnn(C(C)C2CC2)c1NC(=O)c1cnccn1 (configuration not stated)
5. CC(C)NC(=O)c1n[nH]c(-n2cnnc2)n1
6. Cc1nn(C)c(C)c1C1CCCN1Cc1nc(-c2ccco2)oc1C (configuration not stated)
7. COc1ncccc1CN1CCn2c(Cn3cncn3)cnc2C1
8. CC(C)c1nn(C)c(N(C)C)c1CNCCC(=O)N(C)C

Response given:
8.32
-62.8
-7.36
-3.84
-0.0919
22.6
-13.9
10.1

----------
For each record, write down the corresponding Percent Effect.
target: Shiga toxin 2 (Escherichia coli O157:H7) (UniProt P09385+P09386); assay: E. coli 0.157:H7 Shiga Toxin SOP - stx2 screening assay; assay type: functional; design: scale not given: direction of the effect not stated beside the values; details: 30 µM
Answer as a quantity: numeral, then unit.

Some solved entries appear below for comparison.
Cc1cnccc1N1CCCN(C(=O)CCCS(N)(=O)=O)CC1	-11.6%
CCNc1cc2c(nn1)CCN(C(=O)c1ccc3cc[nH]c3c1)C2	-3.04%
Cc1cc(CN(C)C2CCCN(Cc3noc(C4CC4)n3)C2)no1 (stereo not given)	28%
NC(=O)C1CCN(Cn2nc(-c3ccc(F)cc3)oc2=O)CC1	-69.6%
c1ccc(CN2CC[C@H]3CO[C@H](CNc4ncccn4)[C@H]3C2)nc1	3.55%
O=C(Nc1ccnc(OC2CCOC2)c1)c1cc(F)ccc1F (stereo not given)	-63.1%
CC(C)C(=O)N1CCN(C(=O)c2cscn2)[C@H]2CS(=O)(=O)C[C@H]21	-5.71%
CCCNC(=O)C1CCN(Cc2csc(C(C)(C)C)n2)CC1	7.25%
CN(Cc1ccco1)Cc1ccccc1CNC(=O)c1ccncc1	12.1%

Continue with the next molecule.
Challenge: Find the measured Percent Effect of `c1ccc(-c2cc(CN3CCC(c4ccn[nH]4)CC3)on2)cc1` with Shiga toxin 2 (Escherichia coli O157:H7) (UniProt P09385+P09386) as test system.
Response given: -49.6%

----------
biological target: Aspartate--tRNA(Asp/Asn) ligase (Mycobacterium tuberculosis (strain ATCC 25618 / H37Rv)) (UniProt P9WFW3); assay: Assay for Asp RNA synthetase-1 from Mycobacterium tuberculosis; format: functional; design: scale not given: direction of the effect not stated beside the values; conditions: 30 µM; note: in the data most compounds retested in dose-response had high values
Sequence (P9WFW3 whole entry): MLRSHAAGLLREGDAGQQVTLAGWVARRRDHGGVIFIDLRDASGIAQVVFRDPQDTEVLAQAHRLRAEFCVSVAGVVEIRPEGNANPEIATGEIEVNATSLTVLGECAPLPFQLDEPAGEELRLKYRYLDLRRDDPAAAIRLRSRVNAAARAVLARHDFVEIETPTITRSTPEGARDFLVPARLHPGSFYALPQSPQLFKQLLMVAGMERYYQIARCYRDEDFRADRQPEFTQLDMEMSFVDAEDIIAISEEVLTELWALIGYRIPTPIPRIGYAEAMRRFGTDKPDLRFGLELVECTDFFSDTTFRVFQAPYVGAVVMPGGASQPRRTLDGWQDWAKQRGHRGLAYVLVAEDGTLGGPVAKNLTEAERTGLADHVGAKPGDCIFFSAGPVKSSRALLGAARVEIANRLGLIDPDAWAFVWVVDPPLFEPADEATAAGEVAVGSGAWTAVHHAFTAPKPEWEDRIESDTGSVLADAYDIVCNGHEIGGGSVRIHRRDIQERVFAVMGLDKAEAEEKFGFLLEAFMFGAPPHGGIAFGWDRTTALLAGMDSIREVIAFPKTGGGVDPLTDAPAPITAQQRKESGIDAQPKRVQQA
Quantity kind: Percent Effect (%)
Answers are plain numbers, in %.

Examples with their reported Percent Effect follow.
CC(C)c1cccc(CSc2nnc(CN3CCCC3=O)o2)n1	1.44
COCC(C)NC(=O)c1cc(Br)c2c(c1)OCCO2 (stereo unspecified)	-9.24
CC(C)N1Cc2c(C(=O)N3CCOCC3)nn(C)c2C1	0.382
CC(C)NC(=O)N1CC[C@@H]2CN(Cc3ccccc3)S(=O)(=O)[C@@H]2CC1	-3.29
O=C(C1CCOCC1)N1CCc2ncnc(-c3ccc(F)cc3)c2CC1	-1.43
Fc1ccc(CN2CCCC2c2cncc(-n3ccnc3)n2)cc1 (stereo unspecified)	3.75

# batch: return Percent Effect for each of the 7 molecules below
1. Cc1noc(C)c1C(=O)NCc1ccc(N2CCOC(C)C2)nc1 (stereo unspecified)
2. CN1N=C(C(=O)N(Cc2ccco2)C2CC2)CCC1=O
3. CC(C)CN1CCc2[nH]cnc2C12CCN(C(=O)c1cccnc1)CC2
4. CCOCC1CN(C(=O)N(C)C)Cc2nn(C)cc21 (stereo unspecified)
5. O=C(c1cc(F)ccc1F)C1CCN(C(=O)c2ccc(=O)[nH]n2)CC1
6. COc1cccc(CNC(=O)N2CCN(Cc3cc(C)on3)CC2)c1
7. CCOc1ccccc1OC1CCN(C(=O)c2nc(=O)[nH][nH]2)CC1

Response given:
-1.75
-2.73
1.3
7.75
0.519
-2.94
-1.63

Give Percent Effect for each of the items listed below.
1. Cc1cc(CN(C)C(=O)C2CCCN(C(=O)c3ccc(Cl)cc3)C2)no1 (stereo unspecified)
2. O=C1N(Cc2cccc(F)c2F)CCCC1(O)CNC1CCCC1 (stereo unspecified)
3. Cc1nc(C)c2c(n1)CCN(C(=O)CC1CC1)CC2

Response given:
1. 8.83
2. -0.655
3. -2.64

----------
target: Shiga toxin 2 (Escherichia coli O157:H7) (UniProt P09385+P09386); test: E. coli 0.157:H7 Shiga Toxin SOP - stx2 screening assay; type: functional; set-up: scale not given: direction of the effect not stated beside the values; settings: 30 µM
Exercise: state measured Percent Effect for each of the molecules provided.
Numbers only, in %.

Check out these entries, answers already filled in.
COC(=O)N1C[C@H]2CC[C@@H]1CN(Cc1cscn1)C2	17.3
Cc1cc(NC(=O)NCc2ccccn2)n(C)n1	-40.7

We next turn to a different molecule, shown below.
Challenge: Consider the molecule `CCc1nnc2n1CCN(C(=O)c1cnc3ccccc3n1)C2` . State its measured Percent Effect.
Response given: 0.361
